The origin of these recorded values is patent US20140112915A1.

- study-target: T1, Recombinant cynomolgus IL-18 (cynomolgus monkey, UniProt Q14116 37-193 (human entry))
- T1 chain: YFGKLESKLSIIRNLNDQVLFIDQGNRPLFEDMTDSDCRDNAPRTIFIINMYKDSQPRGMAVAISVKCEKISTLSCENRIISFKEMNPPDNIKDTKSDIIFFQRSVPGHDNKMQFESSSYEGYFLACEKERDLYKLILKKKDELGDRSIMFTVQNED
- protocol-description: cell-based or functional assay
Field: IC50, inhibition of IFN-γ release, KG-1 cells, Cyno IL-18 (0.2 nM). Provide a value for each of the binders that follow.
Give bare numbers, in nM.

Guide cases for IC50, inhibition of IFN-γ release, KG-1 cells, Cyno IL-18 (0.2 nM), answers given:
INSERT INTO measurements (binder, observed_value) VALUES
  ('MOR13347 (antibody, human IgG1, kappa, L234A L235A, V domains shown) VH: QVQLVQSGAEVKKPGSSVKVSCKASGGTFSTFSISWVRQAPGQGLEWMGGIIPIFGTANYAQKFQGRVTITADESTSTAYMELSSLRSEDTAVYYCARGGYGGYYYFDYWGQGTLVTVSS VL: DIQMTQSPSSLSASVGDRVTITCRASQSISNRLNWYQQKPGKAPKLLIYKGSTLQSGVPSRFSGSGSGTDFTLTISSLQPEDFATYYCQQHYQWLTTFGQGTKVEIKR', 2.8),
  ('MOR13363 (antibody, human IgG1, kappa, L234A L235A, V domains shown) VH: QVQLLESGGGLVQPGGSLRLSCAASGFTFSSYAIHWVRQAPGKGLEWVSVISGEGSNTYYADSVKGRFTISRDNSKNTLYLQMNSLRAEDTAVYYCARVMIGYGFDYWGQGTLVTVSS VL: DIQMTQSPSSLSASVGDRVTITCRASQSIFNYLNWYQQKPGKAPKLLIYDSSTLQSGVPSRFSGSGSGTDFTLTISSLQPEDFATYYCLQYSGFLFTFGQGTKVEIKR', 0.28),
  ('MOR13341 (antibody, human IgG1, kappa, L234A L235A, V domains shown) VH: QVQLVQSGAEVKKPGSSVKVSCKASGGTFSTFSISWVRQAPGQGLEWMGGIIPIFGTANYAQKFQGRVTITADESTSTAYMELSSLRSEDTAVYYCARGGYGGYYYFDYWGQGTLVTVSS VL: DIQMTQSPSSLSASVGDRVTITCRASQSISNRLNWYQQKPGKAPKLLIYKGSTLQSGVPSRFSGSGSGTDFTLTISSLQPEDFATYYCQQHKVWLTTFGQGTKVEIKR', 2.8);

Exercise: Record request: IC50, inhibition of IFN-γ release, KG-1 cells, Cyno IL-18 (0.2 nM) value, item MOR13342 (antibody, human IgG1, kappa, L234A L235A, V domains shown) VH: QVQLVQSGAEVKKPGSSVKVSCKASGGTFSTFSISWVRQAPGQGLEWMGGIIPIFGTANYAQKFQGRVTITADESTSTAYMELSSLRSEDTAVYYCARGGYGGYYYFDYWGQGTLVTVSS VL: DIQMTQSPSSLSASVGDRVTITCRASQSISNRLNWYQQKPGKAPKLLIYKGSTLQSGVPSRFSGSGSGTDFTLTISSLQPEDFATYYCQQHYVWSTTFGQGTKVEIKR
Key: 2.9
